Provide the recorded Ki for the entries that follow.
Molecular target: T1, human glucose-dependent insulinotropic polypeptide (GIP) receptor (human), P48546
T1 chain: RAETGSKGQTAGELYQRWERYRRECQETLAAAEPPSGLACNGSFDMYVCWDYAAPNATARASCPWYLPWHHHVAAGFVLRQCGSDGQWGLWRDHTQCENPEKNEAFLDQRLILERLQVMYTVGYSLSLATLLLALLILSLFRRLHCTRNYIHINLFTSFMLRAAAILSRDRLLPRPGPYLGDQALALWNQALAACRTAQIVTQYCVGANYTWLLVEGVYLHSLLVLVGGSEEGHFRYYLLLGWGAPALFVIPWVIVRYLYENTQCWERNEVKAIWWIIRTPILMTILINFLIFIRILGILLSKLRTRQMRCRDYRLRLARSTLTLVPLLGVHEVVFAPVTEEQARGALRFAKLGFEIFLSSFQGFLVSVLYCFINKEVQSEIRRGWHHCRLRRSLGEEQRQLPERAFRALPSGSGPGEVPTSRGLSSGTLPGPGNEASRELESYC
Experiment: SPA, displacement of [125I]-GIP from hGIPR membranes, 0.1% bacitracin
Starred links: 1 amine or outer side, 2 acyl side, 3 side chain; linkers in the order of their positions; H or OH if unused. Non-standard residues stand in square brackets, D forms with d. Groups on a side chain read outwards from the residue. No end group written: not given here. *: point of attachment. C20 diacid = O=C(O)CCCCCCCCCCCCCCCCCCC(=O)*; γGlu = O=C(O)[C@H](CCC(=O)[*:2])N[*:1]; αMeL = CC(C)C[C@](C)(N)C(=O)O; Orn = NCCC[C@H](N)C(=O)O; AEEA = NCCOCCOCC(=O)O; Aib = CC(C)(N)C(=O)O
A number alone suffices; assume nM.

Item Y[Aib]EGTFISDYSI[αMeL]LD[Orn]IHQ[Aib]DFVEYK([AEEA-AEEA-γGlu-C20 diacid])LEGGPSSGAPPPS-NH2 [Example 6] has what recorded Ki?
0.104

Request the reported Ki associated with Y[Aib]EGTFISDYSI[αMeL]LD[Orn]IHQ[Aib]DFV[dE]YK([AEEA-AEEA-γGlu-C20 diacid])LEGGPSSGAPPPS-NH2 [Example 101]
0.139
